# Assayed target: Mitogen-activated protein kinase 14 (Homo sapiens, UniProt Q16539)
# Sequence (Q16539 whole entry): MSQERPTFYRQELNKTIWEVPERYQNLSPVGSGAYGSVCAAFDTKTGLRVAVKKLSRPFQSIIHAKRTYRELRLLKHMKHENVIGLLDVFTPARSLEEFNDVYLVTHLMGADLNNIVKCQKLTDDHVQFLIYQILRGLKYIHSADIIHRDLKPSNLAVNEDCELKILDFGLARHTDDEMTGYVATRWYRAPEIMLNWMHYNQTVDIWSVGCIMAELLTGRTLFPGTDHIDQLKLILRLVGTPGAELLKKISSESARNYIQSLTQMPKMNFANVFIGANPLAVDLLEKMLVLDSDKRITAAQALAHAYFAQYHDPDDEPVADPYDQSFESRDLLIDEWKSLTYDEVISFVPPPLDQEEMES
# Experiment notes: Homogeneous Time-Resolved Fluorescence (HTRF) Enzyme Assay
# Condition notes: pH 7; 22 °C
Recorded metric: IC50 (nM)

1: CCCn1c(C2CCN(C)CC2)nc(-c2ccc(Cl)c(Cl)c2)c1-c1ccnc(NC2CC2)n1
2: CCCn1c(C2CCNCC2)nc(-c2ccc(Cl)c(Cl)c2)c1-c1ccnc(NC2CCCCC2)n1
Could you determine which record has the numerically smaller IC50? Candidates: 1 and 2 // respond with label for picked entry
1
(1: 0.078 nM, 2: 4 nM)
